protocol: Solubility of selected diols in 20°C water
Assay type: physicochemical
condition summary: determined via laboratory measurements (values marked *)
Marks after values point to notes of the source that are not given here.
Listed below: Solubility values for each entry.

>  <compound>
OCC1CCC(CO)CC1 (stereo not shown)

>  <Solubility>
20.0* g/100g H2O

$$$$
>  <compound>
CC(O)(CO)c1ccccc1 (stereo not shown)

>  <Solubility>
12.0* g/100g H2O

$$$$
>  <compound>
CCCCCCC(O)CO (stereo not shown)

>  <Solubility>
1.0* g/100g H2O

$$$$
>  <compound>
OCC(O)c1ccccc1 (stereo not shown)

>  <Solubility>
12.0* g/100g H2O

$$$$
